Test system: RAW-Dual (murine macrophage reporter line)
Experiment: NF-kB reporter (SEAP) activity fold change vs agonist alone; higher = enhanced NF-kB activity
Conditions: modulator concentration 10 µM; agonist: LPS 0.1 ug/mL
measured-attribute: NF-kB reporter
// response body must contain only the number

CC(NCCC(c1ccccc1)c1ccccc1)c1ccccc1.Cl (stereo unspecified)
0.64

For `Br.O=S(=O)(c1ccc(-c2csc(Nc3cccc4ccccc34)n2)cc1)N1CCOCC1` , write its NF-kB reporter.
1.01

For Cl.Cl.O=C(O)COCCN1CCN(C(c2ccccc2)c2ccc(Cl)cc2)CC1 (stereo unspecified) , write its NF-kB reporter.
0.996

For `COC(=O)CCS(=O)(=O)c1ccc2ccccc2c1` , write its NF-kB reporter.
1.01

For Cc1ccc(C2(c3ccc(C)cc3)CC2C(=O)Nc2ccncc2)cc1 (stereo unspecified) , write its NF-kB reporter.
0.865

For `CCN(CC)CCOC(=O)C(c1ccccc1)c1ccccc1.Cl` , write its NF-kB reporter.
0.887

For `CC1(C)CC(NC(=O)c2cccnc2-c2nc3ccccc3s2)CC(C)(C)N1` , write its NF-kB reporter.
0.964

For `CSc1nnc2c(n1)[nH]c1c(C)cccc12` , write its NF-kB reporter.
0.931

For `COc1ccc(-c2[nH]c(-c3cccc(OC)c3)nc2SCC(=O)NC2CCCC2)cc1` , write its NF-kB reporter.
1.13

For `Oc1ccc(Cl)cc1-c1nc2ccccc2s1` , write its NF-kB reporter.
0.944

For O=C(NCC(O)(c1ccccc1)C(F)(F)F)c1ccc(Br)o1 (stereo unspecified) , write its NF-kB reporter.
0.86

###

// IRF reporter lookup, one value per entry
System: RAW-Dual (murine macrophage reporter line)
Assay: IRF reporter (Lucia luciferase) activity fold change vs agonist alone; higher = enhanced IRF activity
Settings: modulator concentration 10 µM; agonist: 3'3'-cGAMP 10 ug/mL
// response body must contain only the number

A selection of reference data follows.
CN1CCN(C(=O)N2CCC3(CC2)CC3(F)F)CC1
0.894
O=c1c(O)c(-c2ccc(O)cc2O)oc2cc(O)cc(O)c12
0.739
CN(C)CCCOc1nn(Cc2ccccc2)c2ccccc12.Cl
0.892

Specify IRF reporter for `Cc1ccccc1N(CC(=O)NCCSc1ccc(Cl)cc1)S(=O)(=O)c1ccccc1` , system RAW-Dual (murine macrophage reporter line).
0.64

###

System: RAW-Dual (murine macrophage reporter line)
Test: NF-kB reporter (SEAP) activity fold change vs agonist alone; higher = enhanced NF-kB activity
Conditions: modulator concentration 10 µM; agonist: LPS 0.1 ug/mL
Respond with Yes for NF-kB reporter values of 1 and above, No for values below.

Solved cases (2 shown):
CNCCCC12CCC(c3ccccc31)c1ccccc12.Cl
Yes
COc1ccc(NC(=O)CN(c2ccc(F)cc2)S(C)(=O)=O)c(OC)c1
No

For the next question, use this molecule.
Record Cn1c2c(c3ccccc31)CCCC2NC=O (stereo not given) ; criterion: NF-kB reporter no lower than 1. Met?
No

###

System: RAW-Dual (murine macrophage reporter line)
Assay: viability score (confluency relative to resting cells, overnight) (fraction); higher = more viable, active = viable (0.7 or more)
Details: modulator concentration 10 µM
Respond using exactly one of the listed classes: active, inactive

Solved cases (8 shown):
COc1ccc(Cn2cc3c(-c4ccc(F)cc4)nnc-3c3cc(OC)c(OC)cc32)cc1
inactive
Cl.NCCCC[C@H](N)C(=O)O
active
CC(C)(C)NCC(=O)Nc1ccc(S(N)(=O)=O)cc1
active
COC(CNS(=O)(=O)c1ccccc1Cl)c1cccc(F)c1 (stereo not drawn)
active
CCN(CC)c1ccc(C2Nc3ccccc3-c3nnc(SC)nc3O2)c(OC)c1 (stereo not drawn)
active
CN1CCCC(n2nc(Cc3ccc(Cl)cc3)c3ccccc3c2=O)CC1.Cl (stereo not drawn)
inactive
COc1ccc(Cl)cc1S(=O)(=O)NCc1ccccn1
active
CCOC(=O)C1=C(COCCN)NC(C)=C(C(=O)OC)C1c1ccccc1Cl (stereo not drawn)
inactive

So what was the verdict on `COCCCN1C(=O)C(=Cc2ccc(-c3ccc(Cl)cc3Cl)o2)SC1=S` in this test?
active

So what was the verdict on CC(=O)N1CCN(c2ccc(OCC3COC(Cn4ccnc4)(c4ccc(Cl)cc4Cl)O3)cc2)CC1 (stereo not drawn) in this test?
active

###

// NF-kB reporter lookup, one value per entry
Tested on: RAW-Dual (murine macrophage reporter line)
Experiment: NF-kB reporter (SEAP) activity fold change vs agonist alone; higher = enhanced NF-kB activity
Conditions: modulator concentration 10 µM; agonist: CpG ODN 1826 0.5 ug/mL
// response body must contain only the number

A selection of reference data follows.
COC(=O)COc1ccc2oc(=O)cc(-c3cc4cccc(OC)c4o3)c2c1
0.858
O=C1c2ccc(-c3ccc4c(c3)C(=O)N(CCO)C4=O)cc2C(=O)N1CCO
0.94
COc1ccc(CC(C)N2CCN(c3cccc(C)c3C)CC2)cc1OC (configuration not stated)
0.765

For CCCCCCCCCCCC(CC1OC(=O)C1CCCCCC)OC(=O)C(CC(C)C)NC=O (configuration not stated) , write its NF-kB reporter.
1.55

For `Cc1cccc(CSc2nn3c(=O)c(C)nnc3s2)c1` , write its NF-kB reporter.
1.06

For `CCNc1cc(C)nc(Nc2ccc(NC(=O)c3ccc(OC)c(OC)c3)cc2)n1` , write its NF-kB reporter.
0.118

For COc1ccc(C2=NN(C(=O)c3ccc(Br)cc3)C(c3nc4ccccc4[nH]3)C2)cc1 (configuration not stated) , write its NF-kB reporter.
0.994

For `COc1c(C)c2c(c(O)c1C/C=C(\C)CCC(=O)O)C(=O)OC2` , write its NF-kB reporter.
0.602

For `Oc1c2c(nc3cc(-c4ccc(Br)cc4)nn13)CCS2` , write its NF-kB reporter.
1.06

For `COc1cc(O)c(C(=O)Nc2nc(C(=O)NCCN(C(C)C)C(C)C)cs2)cc1OC.Cl.O.O.O` , write its NF-kB reporter.
1.01

For `Cc1cc2nc3sc(=Cc4ccc(F)cc4)c(=O)n3c2cc1C` , write its NF-kB reporter.
0.99

For `Cl.Cl.NC1=NN(c2ccc(N)cc2)CC1` , write its NF-kB reporter.
0.251

For `Cc1ccc(NC(Nc2ccc(C)cc2)=C(C(Cl)=C(Cl)Cl)[N+](=O)[O-])cc1` , write its NF-kB reporter.
1.01

For `COCCN1CCC(NC(=O)c2cnc3ccccc3n2)CC1` , write its NF-kB reporter.
0.441

For Cc1ccc(N2C(=O)C(=CC3CC=CCC3)SC2=S)cc1 (configuration not stated) , write its NF-kB reporter.
0.652

For `O=C(CCCC(=O)Nc1ccc(Cl)c(Cl)c1)Nc1ccc(Cl)c(Cl)c1` , write its NF-kB reporter.
0.964

For NC(Cc1cc(I)c(Oc2cc(I)c(O)c(I)c2)c(I)c1)C(=O)O (configuration not stated) , write its NF-kB reporter.
0.948

For `COc1ccc(C=CC(=O)Nc2ccc([N+](=O)[O-])cc2)cc1Br` , write its NF-kB reporter.
1.06

For `CCOc1ccc2nc(S(N)(=O)=O)sc2c1` , write its NF-kB reporter.
0.804

For `Cc1ccc(-n2ncnc2-c2ccccc2C)cc1Cl` , write its NF-kB reporter.
0.759

For `C[C@H](Oc1ccc(S(C)(=O)=O)cc1C(=O)N1CCN(c2ncc(C(F)(F)F)cc2F)CC1)C(F)(F)F` , write its NF-kB reporter.
0.902

For `COc1ccc(-c2oc(N=Cc3ccccc3O)c(C#N)c2-c2ccc(OC)cc2)cc1` , write its NF-kB reporter.
0.895

###

System: RAW-Dual (murine macrophage reporter line)
Experiment: IRF reporter (Lucia luciferase) activity fold change vs agonist alone; higher = enhanced IRF activity
Conditions: modulator concentration 10 µM; agonist: 3'3'-cGAMP 10 ug/mL
// IRF reporter lookup, one value per entry
// response body must contain only the number

A selection of reference data follows.
CCOC(=O)Cc1cc(OC)c(OC)cc1C(C)=NNc1ccccc1
0.816
Cc1ccc(CSc2nc3sc4c(c3c(=O)n2-c2ccccc2)CC(C)(C)OC4)c(C)c1
1.05
CS(=O)(=O)O.Cc1c(O)cccc1C(=O)N[C@@H](CSc1ccccc1)[C@H](O)CN1C[C@H]2CCCC[C@H]2C[C@H]1C(=O)NC(C)(C)C
1.09
COc1cc2c(Oc3ccc(NC(=O)C4(C(=O)Nc5ccc(F)cc5)CC4)cc3F)ccnc2cc1OCCCN1CCOCC1
0.0512
COC(=O)C(CCSC)NC(=O)c1cc(OC)c(OC)c(OC)c1 (centres undefined)
1.02
COc1ccc(-c2cc(CNC(=O)C3CCC3)no2)cc1
0.877
Cc1ccc(C2=NN3C(=N)C(=Cc4c[nH]c5ccccc45)C(=O)N=C3S2)cc1
0.974
O=C(C=Cc1ccc(Br)cc1)c1c(-c2ccccc2)c2cc(Cl)ccc2[nH]c1=O
0.858

For `Cc1cc(OCC(=O)NNC(=O)COc2ccc(Br)cc2Br)cc(C)c1Cl` , write its IRF reporter.
0.895

For `CNC(=O)c1cc(Oc2ccc(NC(=O)Nc3ccc(Cl)c(C(F)(F)F)c3)c(F)c2)ccn1.O` , write its IRF reporter.
0.0171

For `O=C(O)c1cc([N+](=O)[O-])c(Nc2cccc3ccccc23)c([N+](=O)[O-])c1` , write its IRF reporter.
0.965

For `Cc1cc(CNC(=O)CCc2ccc(S(C)(=O)=O)cc2)c(C)o1` , write its IRF reporter.
0.928
